Assay: Volume of distribution at steady state in Beagle dog at 1 mg/kg, iv measured upto 24 hrs by LC/MS-MS analysis
Assay type: ADME, organism-based, Canis lupus familiaris
Conditions: in vivo, read-out: Vdss
measuredQuantity: Vd (L/kg)

INSERT INTO measurements (recordsmiles, unitsymbol, experimentalresult) VALUES
  ('O=C(O)[C@H](c1cc(F)ccc1[C@@H]1CCC2(CC2)CO1)N1CC[C@@H](OCCCCc2ccc3c(n2)NCCC3)C1', 'L/kg', 1.84);

----------
Experiment: Oral bioavailability in Sprague-Dawley rat at 10 mg/kg measured upto 24 hrs by LC/MS-MS analysis
Format: ADME, organism-based
Details: in vivo
measuredQuantity: bioavailability (%)

INSERT INTO assay_data (recordsmiles, measuredquantity, unitsymbol, experimentalresult) VALUES
  ('O=C(O)[C@H](c1cc(F)ccc1[C@@H]1CCCO1)N1CC[C@@H](OCCCCc2ccc3c(n2)NCCC3)C1', 'bioavailability', '%', 41),
  ('O=C(O)[C@H](c1cc(F)ccc1[C@@H]1CCC2(CC2)CO1)N1CC[C@@H](OCCCCc2ccc3c(n2)NCCC3)C1', 'bioavailability', '%', 22),
  ('O=C(O)[C@H](c1cc(F)ccc1[C@@H]1CCCCO1)N1CC[C@@H](OCCCCc2ccc3c(n2)NCCC3)C1', 'bioavailability', '%', 38),
  ('CC1(C)CC[C@@H](c2ccc(F)cc2[C@@H](C(=O)O)N2CC[C@@H](OCCCCc3ccc4c(n3)NCCC4)C2)OC1', 'bioavailability', '%', 25);

----------
Target: Integrin alpha-V/beta-6 (Homo sapiens, UniProt P06756+P18564)
Sequence (P06756 31-889 limits assumed): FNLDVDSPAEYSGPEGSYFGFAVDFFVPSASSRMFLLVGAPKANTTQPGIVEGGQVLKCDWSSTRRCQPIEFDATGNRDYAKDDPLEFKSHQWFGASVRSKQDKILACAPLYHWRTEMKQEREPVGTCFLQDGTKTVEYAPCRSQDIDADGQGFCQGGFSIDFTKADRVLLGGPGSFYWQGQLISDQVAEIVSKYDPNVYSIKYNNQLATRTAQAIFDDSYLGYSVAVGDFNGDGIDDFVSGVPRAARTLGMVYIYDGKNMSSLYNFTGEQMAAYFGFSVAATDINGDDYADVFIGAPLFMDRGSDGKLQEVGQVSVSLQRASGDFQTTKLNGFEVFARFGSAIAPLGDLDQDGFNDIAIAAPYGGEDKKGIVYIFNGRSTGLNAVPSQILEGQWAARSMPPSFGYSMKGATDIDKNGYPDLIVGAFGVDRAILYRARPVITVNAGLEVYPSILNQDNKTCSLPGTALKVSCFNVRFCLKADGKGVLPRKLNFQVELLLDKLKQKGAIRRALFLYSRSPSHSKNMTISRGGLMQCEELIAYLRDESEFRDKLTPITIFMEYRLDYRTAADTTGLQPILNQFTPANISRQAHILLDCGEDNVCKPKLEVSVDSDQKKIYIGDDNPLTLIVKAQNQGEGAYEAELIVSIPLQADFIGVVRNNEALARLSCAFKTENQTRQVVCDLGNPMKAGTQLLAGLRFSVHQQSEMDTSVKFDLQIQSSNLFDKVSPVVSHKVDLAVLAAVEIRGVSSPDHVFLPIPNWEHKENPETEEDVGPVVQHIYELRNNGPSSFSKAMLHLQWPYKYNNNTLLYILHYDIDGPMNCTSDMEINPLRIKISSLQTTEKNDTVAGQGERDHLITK
Sequence (P06756 891-1048 limits assumed): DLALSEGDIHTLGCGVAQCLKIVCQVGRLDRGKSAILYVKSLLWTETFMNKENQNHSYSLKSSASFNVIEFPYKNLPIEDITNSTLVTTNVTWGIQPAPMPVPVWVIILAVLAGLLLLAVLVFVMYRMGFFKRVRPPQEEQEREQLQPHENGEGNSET
Sequence (P18564 22-788 limits assumed): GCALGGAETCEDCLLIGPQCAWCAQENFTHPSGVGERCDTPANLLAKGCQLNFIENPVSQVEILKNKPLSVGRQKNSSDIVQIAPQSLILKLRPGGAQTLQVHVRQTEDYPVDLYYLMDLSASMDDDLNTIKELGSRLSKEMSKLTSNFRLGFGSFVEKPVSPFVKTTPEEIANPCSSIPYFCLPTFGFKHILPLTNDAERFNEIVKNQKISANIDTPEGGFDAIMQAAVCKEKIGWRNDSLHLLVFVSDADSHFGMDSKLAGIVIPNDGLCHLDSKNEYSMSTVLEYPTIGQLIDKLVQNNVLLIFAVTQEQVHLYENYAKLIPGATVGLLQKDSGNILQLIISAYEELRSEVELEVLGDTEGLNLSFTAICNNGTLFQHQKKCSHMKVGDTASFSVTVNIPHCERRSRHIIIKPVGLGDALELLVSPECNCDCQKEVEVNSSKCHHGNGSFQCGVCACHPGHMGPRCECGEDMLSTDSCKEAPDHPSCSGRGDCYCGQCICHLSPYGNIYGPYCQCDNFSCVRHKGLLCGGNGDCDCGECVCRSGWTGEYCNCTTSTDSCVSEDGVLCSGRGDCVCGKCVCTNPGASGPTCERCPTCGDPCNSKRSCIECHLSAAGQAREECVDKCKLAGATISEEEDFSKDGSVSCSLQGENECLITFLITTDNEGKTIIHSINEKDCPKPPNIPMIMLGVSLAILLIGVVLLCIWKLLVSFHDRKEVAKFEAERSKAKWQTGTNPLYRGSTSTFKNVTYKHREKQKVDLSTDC
Experiment: Inhibition of Integrin alphaVbeta6 (unknown origin) mediated TGF-beta1 activation expressed in primary epithelial cells cocultured with idiopathic pulmonary fibroblast cells assessed as downregulation of COL3A1 mRNA expression measured after 72 hrs by qPCR assay
Assay type: cell-based, Epithelial cell
pIC50: −log10 of the molar value.
measuredQuantity: pIC50

INSERT INTO assay_data (recordsmiles, experimentalresult) VALUES
  ('O=C(O)[C@H](c1cc(F)ccc1[C@@H]1CCC2(CC2)CO1)N1CC[C@@H](OCCCCc2ccc3c(n2)NCCC3)C1', 7.89);

----------
Attribute: pIC50
Target: Integrin alpha-V/beta-6 (Homo sapiens, UniProt P06756+P18564)
Assay: Displacement of fluorescein labeled GRGDLGRL from human Integrin alphaVbeta6 preincubated for 15 mins followed by fluorescein labeled GRGDLGRL addition and measured after 1 hr by fluorescence polarization assay
Type: protein-complex assay
pIC50: −log10 of the molar value.
measuredQuantity: pIC50

INSERT INTO results (compound, measuredquantity, experimentalresult) VALUES
  ('O=C(O)[C@H](c1ccccc1C1CC1)N1C[C@@H](F)[C@@H](OCCCCc2ccc3c(n2)NCCC3)C1', 'pIC50', 8.07),
  ('O=C(O)[C@H](c1cc(F)ccc1[C@H]1CCCO1)N1CC[C@@H](OCCCCc2ccc3c(n2)NCCC3)C1', 'pIC50', 7.92),
  ('CC1(C)CCCC(c2ccccc2[C@@H](C(=O)O)N2CC[C@@H](OCCCCc3ccc4c(n3)NCCC4)C2)O1 (some centres undefined)', 'pIC50', 8.34),
  ('O=C(O)[C@H](c1cc(F)ccc1[C@H]1CCOC1)N1CC[C@@H](OCCCCc2ccc3c(n2)NCCC3)C1', 'pIC50', 8.55);

Source of measurements: ChEMBL document CHEMBL6083263
